- COND: buffer; pH 7.4; 200.0 µM
Here, each record is paired with measured solubility kinetic data.
ASSAY_ENDPOINT: solubility kinetic

>>> result("COc1cc([N+](=O)[O-])cc2sc(NC(=O)C(C)(C)C)nc12")
"< 0.2 µg/mL"
>>> result("O=C(CN1CCCCC1)NC(=O)NC1CCCCC1")
"> 40.1 µg/mL"
>>> result("COc1ccc(C(=O)NCC(=O)N2CCN(C(=O)c3ccco3)CC2)cc1[N+](=O)[O-]")
"> 62.5 µg/mL"
>>> result("Cl.NCCc1c[nH]c2ccc(O)cc12")
"> 31.9 µg/mL"
>>> result("O=[N+]([O-])C(=C1NCCN1)C(Cl)=C(Cl)Cl")
"> 38.8 µg/mL"
>>> result("COc1ccccc1NC(=O)COC(=O)c1cc(C)n(C2CC2)c1C")
"3.4 µg/mL"
>>> result("O=c1c(-c2ccccc2)c(O)c2ccccc2n1-c1ccccc1")
"> 47 µg/mL"
>>> result("COc1ccc(NC(=O)CCNC(=O)c2ccco2)cc1OC")
"47.3 µg/mL"
>>> result("Cc1ccc(NC(=O)c2ccco2)nc1")
"28.9 µg/mL"
>>> result("O=C(COC(=O)c1ccc[nH]c1=O)NC1CCCCC1")
"37 µg/mL"
>>> result("COc1cccc(OC)c1C(=O)NCCc1ccccc1")
"> 42.8 µg/mL"
>>> result("CCOc1ccc(/C=C2\\SC(=S)N(C(C(=O)O)c3ccccc3)C2=O)cc1OC (configuration not stated)")
"> 64.4 µg/mL"

====

- COND: buffer; pH 7.4; 200.0 µM
ASSAY_ENDPOINT: solubility kinetic

>>> result("CC(=O)Cn1ncc(N2CCOCC2)c(Br)c1=O")
"> 47.4 µg/mL"
>>> result("CC1(C(=O)Nc2ccc3c(c2)OCO3)CC1(Cl)Cl (configuration not stated)")
"> 43.2 µg/mL"
>>> result("Cc1cccc(NC(=O)Nc2ccccn2)c1C")
"1.2 µg/mL"
>>> result("Cc1nn(C)c(C)c1NC(=O)COc1ccc(Cl)cc1")
"> 44.1 µg/mL"
>>> result("N#Cc1ccccc1OCC(=O)OCC(=O)N1CCCC1")
"> 43.2 µg/mL"
>>> result("CCn1c(=O)c2ccccc2n(Cc2cccc([N+](=O)[O-])c2)c1=O")
"0.9 µg/mL"
>>> result("O=C1CCC(C(=O)OCc2nnc(-c3ccccc3)o2)=NN1")
"> 45 µg/mL"
>>> result("COc1ccc(S(=O)(=O)N2CCc3ccccc32)cc1[N+](=O)[O-]")
"6.4 µg/mL"
>>> result("Cc1ccc(NC(=O)c2cnccn2)cc1")
"> 32 µg/mL"
>>> result("CCC(OC(=O)c1nsc(Cl)c1Cl)C(=O)NC(C)(C)CC (configuration not stated)")
"> 53 µg/mL"
>>> result("Cn1c(-c2ccccc2)nc2cnccc21")
"> 31.4 µg/mL"
>>> result("COc1ccc(-c2c(NCCc3ccccc3)c(=O)c2=O)cc1")
"1 µg/mL"

====

- COND: buffer; pH 7.4; 200.0 µM
Here, each record is paired with measured log10 of solubility kinetic data.
ASSAY_ENDPOINT: log10 of solubility kinetic (log10 of the value in µg/mL)

>>> numeric_readout("CCCCN(C)C(=O)c1cc2cc3ccc(OC)cc3nc2o1")
1.16
>>> numeric_readout("CC(=O)NS(=O)(=O)c1ccc(NC(=O)CSc2ccccc2)cc1")
1.63
>>> numeric_readout("Cc1cc(C)c(C)c(S(=O)(=O)N[C@@H](C)C(=O)OCC(=O)NC2CCCC(C)C2C)c1C (some centres undefined)")
1.44
>>> numeric_readout("COc1ccc(OCC(O)CNC2CCCC2)cc1.Cl (centres undefined)")
1.63
>>> numeric_readout("COc1ccc(S(=O)(=O)NCc2c(-c3ccccc3)noc2C)c(OC)c1")
0.64
>>> numeric_readout("CN1CCN(c2ccc(C(=O)NC3CCCCC3)cc2[N+](=O)[O-])CC1")
1.70
>>> numeric_readout("O=C(NCc1ccccc1F)c1ccc2ccccc2n1")
1.32
>>> numeric_readout("CCN1C(=O)Cc2cc(S(=O)(=O)NCCc3ccccc3)ccc21")
1.52
>>> numeric_readout("COc1ccc(C(C)NS(=O)(=O)Cc2ccccc2)cc1 (centres undefined)")
1.63
>>> numeric_readout("Cc1nc2ccccc2nc1OCC(=O)Nc1ccc(F)cc1")
1.52
>>> numeric_readout("O=C(COC(=O)c1ccc(Br)o1)Nc1ccc2c(c1)OCCO2")
0.71
>>> numeric_readout("Cc1ccc(Nc2nc(NCCO)c3ccccc3n2)cc1C.Cl")
1.49
>>> numeric_readout("Cc1cc(C(=O)Nc2ccc(Cl)cc2)c(C)n1Cc1cccs1")
0.43

====

Here, each record is paired with measured solubility kinetic data.
- COND: buffer; pH 7.4; 200.0 µM
ASSAY_ENDPOINT: solubility kinetic (µg/mL)

>>> numeric_readout("COCC(=O)N(Cc1nc2sc(C)c(C)c2c(=O)[nH]1)C1CCCCC1")
47.4
>>> numeric_readout("O=c1[nH]c(=S)n(Cc2ccc(F)cc2)c(O)c1C=NCc1ccc2c(c1)OCO2")
0.4
>>> numeric_readout("Nc1ccccc1SC/C=C/CSc1ccccc1N")
12.8
>>> numeric_readout("CSc1nccc(NC(=O)c2cccc(Br)c2)n1")
2.5
>>> numeric_readout("O=C(COC(=O)c1ccc(O)cc1)Nc1ccc(OC(F)F)cc1")
29.9
>>> numeric_readout("Fc1ccc(NC(=S)Nc2ccc3nccnc3c2)cc1")
41.9

====

- COND: buffer; pH 7.4; 200.0 µM
Classify as follows. Reported solubility kinetic greater than or equal to 7 µg/mL: t. Reported solubility kinetic below: f.

>>> answer_label("Cc1ccnc(Nc2nc(-c3ccc(F)cc3)cs2)c1")
"f"
>>> answer_label("NC(=O)Cn1c(=O)n(Cc2ccccc2)c(=O)c2cccnc21")
"t"
>>> answer_label("CCOC(=O)C1CCN(CCC(=O)Nc2cc(C)ccc2C)CC1")
"t"
>>> answer_label("Cn1cnnc1SCC(=O)NC1CCCc2ccccc21 (stereo not given)")
"t"
>>> answer_label("Cc1cc(C(=O)NCc2ccccc2F)c2ccccc2n1")
"t"
>>> answer_label("CN(Cc1ccccc1)C(=O)c1cccnc1")
"t"
>>> answer_label("O=P(C(Cl)Cl)(N1CCOCC1)N1CCOCC1")
"t"
>>> answer_label("COc1ccc(CC2SC(N)=NC2=O)cc1 (stereo not given)")
"t"
>>> answer_label("CSCCC1NC(=O)N(CC(=O)Nc2cccc(S(=O)(=O)N3CCCCCC3)c2)C1=O (stereo not given)")
"t"
>>> answer_label("Cc1ccc([N+](=O)[O-])cc1NC(=O)/C=C/C(=O)O")
"t"
>>> answer_label("O=C(CNC(=O)c1ccccc1F)c1ccc(Br)cc1")
"f"
>>> answer_label("Cc1cc(=O)oc2cc(OCC(=O)N3CC[C@@]4(O)CCCC[C@H]4C3)ccc12")
"t"
>>> answer_label("Cn1c(N)c(C(=O)COC(=O)C2CCCC2)c(=O)n(C)c1=O")
"t"
>>> answer_label("COc1cc(OC)cc(/C(N)=N/O)c1")
"t"
>>> answer_label("CCOC(=O)Cn1nc2sc3ccccc3n2c(=O)c1=O")
"t"
>>> answer_label("N#Cc1ccccc1OCC(=O)NC1CCCCC1")
"t"
>>> answer_label("CC(C)(C)C(=O)Nc1ccc(NC(=O)c2ccco2)nc1")
"t"
>>> answer_label("CS(=O)(=O)c1ccc(C(=O)OCC(=O)NCc2cccs2)cc1[N+](=O)[O-]")
"t"
>>> answer_label("CN(C(=O)CSc1nnc(-c2ccc(F)cc2)n1C)C1CCS(=O)(=O)C1 (stereo not given)")
"t"
>>> answer_label("Cc1cccc(C)c1NC(=O)COC(=O)c1ccccc1O")
"f"
>>> answer_label("CCSC1=NCCN1C(=O)C(C)(C)Oc1ccc(Cl)cc1")
"t"
>>> answer_label("CC(=O)OCC(=O)Nc1ccc(Br)c(C)c1")
"t"
>>> answer_label("COc1ccc(C(=O)Nc2ccc(NC(=O)c3ccccc3F)cn2)cc1")
"f"
>>> answer_label("O=c1c2ccccc2nc(/C=C/c2ccc(Br)cc2)n1CCO")
"f"

====

Here, each record is paired with measured solubility kinetic data.
- COND: buffer; pH 7.4; 200.0 µM
ASSAY_ENDPOINT: solubility kinetic (µg/mL)

>>> numeric_readout("Nc1nc(NCCN2CCOCC2)nc(NCc2ccccc2)c1[N+](=O)[O-]")
12
>>> numeric_readout("Cc1nc(-c2ccc(S(=O)(=O)N3CCOCC3)cc2)cs1")
20.7
>>> numeric_readout("COC(=O)c1ccc(NC(=O)C(=O)c2cccn2C)cc1")
3.2
>>> numeric_readout("CCOC(=O)c1cccc(NC(=S)NCc2ccc(C)cc2)c1")
0.4

Origin of values: PubChem BioAssay AID1996
